Values were extracted from PubChem BioAssay AID1845209.

Tested on: NCI-H211 tumor spheroids, viability percent test/control
Test: Anticancer human tumor NCI-H211 cell line growth inhibition;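 note: spheroids exposed to agents for seven days before readout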
Details: second compound 30 pM; first compound 0.0949 µM; stronger effect = lower value; spheroids with HUVEC and MSC
Reported property: viability, T/C (%)

Compound	Reported value
O=C(c1cc(Cc2n[nH]c(=O)c3ccccc23)ccc1F)N1CCN(C(=O)C2CC2)CC1 + COc1cc2c(cc1O)CCNC21CSC2c3c(OC(C)=O)c(C)c4c(c3C(COC1=O)N1C(O)C3Cc5cc(C)c(OC)c(O)c5C(C21)N3C)OCO4	50.5
CNCc1ccc(-c2cc(-c3nc(-c4ccc(S(=O)(=O)C(C)C)cc4)cnc3N)on2)cc1 + COc1cc2c(cc1O)CCNC21CSC2c3c(OC(C)=O)c(C)c4c(c3C(COC1=O)N1C(O)C3Cc5cc(C)c(OC)c(O)c5C(C21)N3C)OCO4	2.15
Cc1sc2c(c1C)C(c1ccc(Cl)cc1)=NC(CC(=O)Nc1ccc(O)cc1)c1nnc(C)n1-2 (centres undefined) + COc1cc2c(cc1O)CCNC21CSC2c3c(OC(C)=O)c(C)c4c(c3C(COC1=O)N1C(O)C3Cc5cc(C)c(OC)c(O)c5C(C21)N3C)OCO4	0.66
Cn1ncnc1[C@H]1c2n[nH]c(=O)c3cc(F)cc(c23)N[C@@H]1c1ccc(F)cc1 + COc1cc2c(cc1O)CCNC21CSC2c3c(OC(C)=O)c(C)c4c(c3C(COC1=O)N1C(O)C3Cc5cc(C)c(OC)c(O)c5C(C21)N3C)OCO4	0.93

* * *

System: NCI-H211 tumor spheroids, viability percent test/control
Assay: Anticancer human tumor NCI-H211 cell line growth inhibition; active means viability on the fitted dose curve at most 10% of control; inactive means the rest;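 note: spheroids exposed to agents for seven days before readout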
Settings: second compound 3.16 µM; first compound 0.316 µM; spheroids with HUVEC and MSC
Labels: true (1) (active), false (0) (inactive)

Compound	Qualitative label
COc1ccc([C@@H](O)c2cc(-c3ncnc4cc(N5CCOCC5)ccc34)c(F)cc2Cl)nn1 + Cn1nnc2c(C(N)=O)ncn2c1=O	false (0)
CC(C)n1c(=O)n(C)c2cnc3cc(F)c(-c4ccc(OCCCN5CCCCC5)nc4)cc3c21 + Cn1nnc2c(C(N)=O)ncn2c1=O	false (0)
COc1cc(C)[nH]c(=O)c1CN1CCc2c(Cl)cc(C(OC)C3COC3)c(Cl)c2C1=O (stereo unspecified) + Cn1nnc2c(C(N)=O)ncn2c1=O	false (0)
[2H]c1nc(C)nc([2H])c1-c1cc(NC[C@@H](C)c2cccc3c(C(=O)NC)ccnc23)ncn1 + Cn1nnc2c(C(N)=O)ncn2c1=O	false (0)
CC1COCCN1c1cc(-c2ccnn2C)c2ccnc(-c3ccn[nH]3)c2n1 (stereo unspecified) + Cn1nnc2c(C(N)=O)ncn2c1=O	true (1)
Cc1cc(C)c(CNC(=O)c2cc(-c3ccc(CN4CCOCC4)cc3)cc3c2cnn3C2CCCC2)c(=O)[nH]1 + Cn1nnc2c(C(N)=O)ncn2c1=O	false (0)

* * *

Test system: NCI-H211 tumor spheroids, viability percent test/control
Experiment: Anticancer human tumor NCI-H211 cell line growth inhibition;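 note: spheroids exposed to agents for seven days before readout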
Conditions: second compound 0.000949 µM; first compound 0.0949 µM; stronger effect = lower value; spheroids with HUVEC and MSC
Reported property: viability, T/C (%)

Compound	Reported property	Reported value
Cc1sc2c(c1C)C(c1ccc(Cl)cc1)=NC(CC(=O)Nc1ccc(O)cc1)c1nnc(C)n1-2 (centres undefined) + COc1cc2c(cc1O)CCNC21CSC2c3c(OC(C)=O)c(C)c4c(c3C(COC1=O)N1C(O)C3Cc5cc(C)c(OC)c(O)c5C(C21)N3C)OCO4	viability, T/C	0.47
O=C(c1cc(Cc2n[nH]c(=O)c3ccccc23)ccc1F)N1CCN(C(=O)C2CC2)CC1 + COc1cc2c(cc1O)CCNC21CSC2c3c(OC(C)=O)c(C)c4c(c3C(COC1=O)N1C(O)C3Cc5cc(C)c(OC)c(O)c5C(C21)N3C)OCO4	viability, T/C	0.69
Cn1ncnc1[C@H]1c2n[nH]c(=O)c3cc(F)cc(c23)N[C@@H]1c1ccc(F)cc1 + COc1cc2c(cc1O)CCNC21CSC2c3c(OC(C)=O)c(C)c4c(c3C(COC1=O)N1C(O)C3Cc5cc(C)c(OC)c(O)c5C(C21)N3C)OCO4	viability, T/C	0.76
CNCc1ccc(-c2cc(-c3nc(-c4ccc(S(=O)(=O)C(C)C)cc4)cnc3N)on2)cc1 + COc1cc2c(cc1O)CCNC21CSC2c3c(OC(C)=O)c(C)c4c(c3C(COC1=O)N1C(O)C3Cc5cc(C)c(OC)c(O)c5C(C21)N3C)OCO4	viability, T/C	0.88

* * *

Tested on: NCI-H211 tumor spheroids, viability percent test/control
Experiment: Anticancer human tumor NCI-H211 cell line growth inhibition;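 note: spheroids exposed to agents for seven days before readout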
Conditions: second compound 0.003 µM; first compound 0.03 µM; stronger effect = lower value; spheroids with HUVEC and MSC

Molecule	viability, T/C / %
Cn1ncnc1[C@H]1c2n[nH]c(=O)c3cc(F)cc(c23)N[C@@H]1c1ccc(F)cc1 + COc1cc2c(cc1O)CCNC21CSC2c3c(OC(C)=O)c(C)c4c(c3C(COC1=O)N1C(O)C3Cc5cc(C)c(OC)c(O)c5C(C21)N3C)OCO4	0.12
Cn1ncnc1[C@H]1c2n[nH]c(=O)c3cc(F)cc(c23)N[C@@H]1c1ccc(F)cc1 + CC[C@@]1(O)C(=O)OCc2c1cc1n(c2=O)Cc2cc3c(CN(C)C)c(O)ccc3nc2-1	1.19
CNCc1ccc(-c2cc(-c3nc(-c4ccc(S(=O)(=O)C(C)C)cc4)cnc3N)on2)cc1 + COc1cc2c(cc1O)CCNC21CSC2c3c(OC(C)=O)c(C)c4c(c3C(COC1=O)N1C(O)C3Cc5cc(C)c(OC)c(O)c5C(C21)N3C)OCO4	0.11

* * *

Test system: NCI-H211 tumor spheroids, viability percent test/control
Assay: Anticancer human tumor NCI-H211 cell line growth inhibition;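 note: spheroids exposed to agents for seven days before readout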
Conditions: curve of first compound; second compound 0.0003 µM; spheroids with HUVEC and MSC
Recorded IC50, one value per entry.

Compound	IC50
COc1cc(C)[nH]c(=O)c1CN1CCc2c(Cl)cc(C(OC)C3COC3)c(Cl)c2C1=O (stereo not given) + COc1cc2c(cc1O)CCNC21CSC2c3c(OC(C)=O)c(C)c4c(c3C(COC1=O)N1C(O)C3Cc5cc(C)c(OC)c(O)c5C(C21)N3C)OCO4	< 31.6 nM
Cc1sc2c(c1C)C(c1ccc(Cl)cc1)=NC(CC(=O)Nc1ccc(O)cc1)c1nnc(C)n1-2 (stereo not given) + COc1cc2c(cc1O)CCNC21CSC2c3c(OC(C)=O)c(C)c4c(c3C(COC1=O)N1C(O)C3Cc5cc(C)c(OC)c(O)c5C(C21)N3C)OCO4	< 9.49 nM
COc1ccc([C@@H](O)c2cc(-c3ncnc4cc(N5CCOCC5)ccc34)c(F)cc2Cl)nn1 + COc1cc2c(cc1O)CCNC21CSC2c3c(OC(C)=O)c(C)c4c(c3C(COC1=O)N1C(O)C3Cc5cc(C)c(OC)c(O)c5C(C21)N3C)OCO4	< 31.6 nM
CC1COCCN1c1cc(-c2ccnn2C)c2ccnc(-c3ccn[nH]3)c2n1 (stereo not given) + COc1cc2c(cc1O)CCNC21CSC2c3c(OC(C)=O)c(C)c4c(c3C(COC1=O)N1C(O)C3Cc5cc(C)c(OC)c(O)c5C(C21)N3C)OCO4	< 31.6 nM
[2H]c1nc(C)nc([2H])c1-c1cc(NC[C@@H](C)c2cccc3c(C(=O)NC)ccnc23)ncn1 + COc1cc2c(cc1O)CCNC21CSC2c3c(OC(C)=O)c(C)c4c(c3C(COC1=O)N1C(O)C3Cc5cc(C)c(OC)c(O)c5C(C21)N3C)OCO4	< 31.6 nM
Cc1cc(C)c(CNC(=O)c2cc(-c3ccc(CN4CCOCC4)cc3)cc3c2cnn3C2CCCC2)c(=O)[nH]1 + COc1cc2c(cc1O)CCNC21CSC2c3c(OC(C)=O)c(C)c4c(c3C(COC1=O)N1C(O)C3Cc5cc(C)c(OC)c(O)c5C(C21)N3C)OCO4	< 31.6 nM
CNCc1ccc(-c2cc(-c3nc(-c4ccc(S(=O)(=O)C(C)C)cc4)cnc3N)on2)cc1 + COc1cc2c(cc1O)CCNC21CSC2c3c(OC(C)=O)c(C)c4c(c3C(COC1=O)N1C(O)C3Cc5cc(C)c(OC)c(O)c5C(C21)N3C)OCO4	< 9.49 nM
O=C(c1cc(Cc2n[nH]c(=O)c3ccccc23)ccc1F)N1CCN(C(=O)C2CC2)CC1 + COc1cc2c(cc1O)CCNC21CSC2c3c(OC(C)=O)c(C)c4c(c3C(COC1=O)N1C(O)C3Cc5cc(C)c(OC)c(O)c5C(C21)N3C)OCO4	< 94.9 nM
Cn1ncnc1[C@H]1c2n[nH]c(=O)c3cc(F)cc(c23)N[C@@H]1c1ccc(F)cc1 + COc1cc2c(cc1O)CCNC21CSC2c3c(OC(C)=O)c(C)c4c(c3C(COC1=O)N1C(O)C3Cc5cc(C)c(OC)c(O)c5C(C21)N3C)OCO4	< 9.49 nM
CC(C)n1c(=O)n(C)c2cnc3cc(F)c(-c4ccc(OCCCN5CCCCC5)nc4)cc3c21 + COc1cc2c(cc1O)CCNC21CSC2c3c(OC(C)=O)c(C)c4c(c3C(COC1=O)N1C(O)C3Cc5cc(C)c(OC)c(O)c5C(C21)N3C)OCO4	< 31.6 nM
